Recorded Internalization rate in SKBR3 cells, FITC signal, 2-hour for the following binders
Test Target: human ErbB2 on ErbB2-positive cells (human, UniProt P04626 23-1255)
Procedure Text: cell-based or functional assay
Measured Metric: Internalization rate in SKBR3 cells, FITC signal, 2-hour

>>> obs_value("5F12 mouse anti-ErbB2 monoclonal antibody (antibody, mouse IgG1, V domains shown, also called 5F12E5A8; IgG 5F12) VH: QVQLQQSGAELARPGASVKMSCKASGYTFTSYTMHWIKQRPGQGLEWIGYINPSSSYTNYNQNFKDKATLTADKSSSTANMQLNSLTSEDSAVYYCARASSYSLDYWGQGTALTVSS VL: DIQMTQSPSSLSTSLGGKVTITCKASQDINKYIAWYQHKPGKGPRLLIHSTSTLYPGIPSRFSGSGSGKDYSFRITNLEPEDIATYYCLQYDNLLWTFGGGTKLGIR")
22.6
>>> obs_value("4C9 mouse anti-ErbB2 monoclonal antibody (antibody, mouse IgG1, V domains shown, also called 4C9G3F5; IgG 4C9) VH: QVQLQQSGAELARPGASVKMSCKASGYTFTSYTMHWVKQRPGQGLDWIGYINPSSGYTTYNQKFKDKATLTADKSSSTAYMQLSSLASADSAVYYCARASAYSLDYWGQGTTLTVSS VL: DIQMTQSPSSLSASLGGRVTITCKASHDIDRYIAWYQHKPGKGPRLLIHYTSTLQPGIPSRFSGSGSGRDYSFSISNLEPEDIATYYCLKYDNLLWTFGGGTKLEIT")
23.8
>>> obs_value("4H2 mouse anti-ErbB2 monoclonal antibody (antibody, mouse IgG1, V domains shown, also called 4H2H2H9; IgG 4H2) VH: QVQLQQSGAELARPGASVKMSCKASGFTFTSYTIHWVKQRPGQGLDWIGYINPSSGYTTYNQRFKDKATLTADKSSSTAYMQLSSLTSADSAVYYCARASAYSLDYWGQGTTLTVSS VL: DIQMTQSPSSLSASLGGKVTITCKASQDIDRYIAWYQHKPGKGPRLLIHYTSTLQPGIPSRFSGSGSGRNYSFSISNLEPEDIATYYCLKYDNLLWTFGGGTKLEIK")
17.7
>>> obs_value("4G6 mouse anti-ErbB2 monoclonal antibody (antibody, mouse IgG1, V domains shown, also called 4G6C9B8; IgG 4G6) VH: QVQLQQSGAELARPGASVKMSCKASGYTFTSYTMHWVKQRPGQGLEWIGYINPSSAYTNYNQKFKDKATLTADKSSSTANMQLNSLTSEDSAVYYCARASAYSLDYWGQGTALTVSS VL: DIQMTQSPSSLSASLGGKVTITCKASQDINKYIAWYQHKPGKGPRLLIHSTSTLYPGIPSRFSGSGSGRDYSFRITNLEPEDIATYYCLQYDNLLWTFGGGTKVGIR")
18.5
